Each recorded value in this set is attributed to ChEMBL document CHEMBL1149331.

target: Glutathione S-transferase P (Homo sapiens, UniProt P09211); assay: Inhibitory activity for human glutathione S-transferase-pi isozyme was determined
Sequence (P09211 whole entry): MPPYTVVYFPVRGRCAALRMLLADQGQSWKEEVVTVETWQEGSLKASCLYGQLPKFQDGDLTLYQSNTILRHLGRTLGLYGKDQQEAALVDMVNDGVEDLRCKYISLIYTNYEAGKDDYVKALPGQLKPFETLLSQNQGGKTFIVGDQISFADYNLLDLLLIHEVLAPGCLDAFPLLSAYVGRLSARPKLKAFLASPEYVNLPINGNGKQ
recorded metric: pKi
Please treat pKi as minus the base-10 logarithm of the molar concentration.

For O=C1O/C(=C/Br)CC1c1ccccc1 (stereo unspecified) , what is its reported pKi?
3.91

---

The following compounds are shown together with reported K obs values.
target: Glutathione S-transferase P (Homo sapiens, UniProt P09211); test: Inactivation of recombinant human Glutathione S-transferase P
Sequence (P09211 2-210 limits assumed): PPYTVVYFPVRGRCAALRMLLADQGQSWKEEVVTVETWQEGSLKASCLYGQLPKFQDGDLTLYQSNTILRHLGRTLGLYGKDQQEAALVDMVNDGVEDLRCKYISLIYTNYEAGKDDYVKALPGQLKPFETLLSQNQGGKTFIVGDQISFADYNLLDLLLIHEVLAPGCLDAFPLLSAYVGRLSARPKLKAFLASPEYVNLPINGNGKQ

For O=C1O/C(=C/Br)CC1Cc1ccccc1 (stereo not drawn) , what is its reported K obs?
0.101

---

The following compounds are shown together with reported K obs values.
target: Glutathione S-transferase P (Homo sapiens, UniProt P09211); experiment: Inactivation of recombinant human Glutathione S-transferase P
Respond using a number only.

Examples from the recorded data:
compound	measured target	K obs
O=C1O/C(=C/Br)CC1CCCc1ccccc1 (stereo not drawn)	Glutathione S-transferase P (Homo sapiens, UniProt P09211)	0.0439
O=C1O/C(=C/Br)CC1CCc1ccccc1 (stereo not drawn)	Glutathione S-transferase P (Homo sapiens, UniProt P09211)	0.0632

Consider the additional compound presented here.
Provide value of K obs for this record tested with Glutathione S-transferase P (Homo sapiens, UniProt P09211): O=C1O/C(=C/Br)CC1C/C=C/c1ccccc1 (stereo not drawn)
0.0604
